Below, each of the molecules is paired with its reported composite z-score value.
assay: probe aNOTCH3 binding on compound microarray – biochemical, small-molecule microarray, 635/667 nm fluorescence, primary screen (AID 1120); conditions: higher = more signal;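 note: probe is a biotin-tagged antibody raised against NOTCH3 rather than NOTCH3 protein; score merges spot fluorescence near 667 nm with spot signal to noise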
When you answer, write just the number.

Reference set, count: 8
COCCOC(=O)N1C(=O)[C@@]2(c3ccccc31)[C@H](C(=O)N1CCCCCCC1)[C@H]1C(=O)O[C@H](c3ccccc3)[C@H](c3ccccc3)N1[C@@H]2c1ccc(OCCO)cc1	2.33
C=CC[C@]1(C(=O)N2CCOCC2)N=C(c2ccc(OCCCO)cc2)O[C@H]1c1ccccc1N=[N+]=[N-]	0.298
[N-]=[N+]=Nc1ccccc1C[C@@]1(C(=O)N2CCCCC2)N=C(c2ccc(OCCCO)cc2)O[C@@H]1c1ccccc1	0.107
C=CC[C@]1(C(=O)NCc2ccccc2)N=C(c2ccc(OCCCO)cc2)O[C@H]1c1ccccc1CN=[N+]=[N-]	0.367
CC[C@@H]1C=C(C(=O)O)[C@H](c2cccc3ccccc23)N1S(=O)(=O)c1ccc(C)cc1	0.0225
CC(C)Cc1ccc(CN2CC[C@@H](N)C2)cc1	-0.152
COC(=O)[C@@]1(Cc2ccccc2)[C@H]2c3cc(C(=O)N(C)C)n(CCc4c[nH]c5ccc(O)cc45)c3C[C@H]2CN1C(=O)c1ccccc1	0.238
C=CC[C@@]1(C(=O)N2CCCCC2)N=C(c2ccc(OCCCO)cc2)O[C@@H]1c1ccccc1N=[N+]=[N-]	0.185

Query (molecule): C=C(CCCC)/C(=C/C[C@H](OC(C)=O)c1ccc(OCCO)cc1)c1cnc2ccccc2c1 ; field requested: composite z-score 0.116

Return reported composite z-score; argument: COCCCNC(=O)[C@@]1(Cc2ccccc2)N=C(c2ccc(OCCCO)cc2)O[C@H]1c1ccccc1CN=[N+]=[N-] 0.217

* * *

assay: probe aWnt5a binding to arrayed compounds – biochemical, biotinylated probe, 635/667 nm fluorescence, primary screen (AID 1113); conditions: small-molecule microarray, higher = more signal;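 note: score merges 667 nm fluorescence intensity with signal-to-noise per printed feature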
Decision: composite z-score >= -0.07 yields Y, all other cases yield N.

CC(C)N1CC=CC23O[C@@H]4C=CCOC(=O)[C@@H]4[C@H]2C(=O)N(CCCCCO)[C@@H]3C1=O (stereo partly specified)	N
COCCCNC(=O)[C@@H]1c2ccccc2C(=O)N(Cc2ccccc2OC)[C@H]1c1ccc(CO)cc1	Y
O=C1[C@H]2C=C(Br)[C@H](C[C@@H]2OCCCCCCO)[C@@]12CO2	Y
OCCCC1=CC(C2CC2)N(Cc2cccc(OC(F)(F)F)c2)CC1 (stereo unspecified)	N
COc1ccc([C@H]2OC[C@@H]3CCC(=O)N32)cc1	N

Reported composite z-score at or above -0.07? C=CCC(OC(C)=O)[C@@H]1[C@@H](N(Cc2cc3ccccc3o2)C(=O)Cc2ccc(OC)cc2)c2cc(OCCCO)ccc2N1C(=O)c1ccc2ccccc2c1 (stereo partly specified) N

Is the recorded value of composite z-score equal to or greater than -0.07 for this molecule? O=C(CS)NCCCCCNC(=O)[C@H]1C[C@H]2C(=O)NCC(=O)N2[C@H]1c1cccc(OCCO)c1 N

Is composite z-score at least -0.07? Consider C=C(C)[C@@H]1CC=C(C(O)C2C=CC3C(=O)NC(=O)C3N2Nc2ccc(Cl)cc2Cl)CC1 (stereo partly specified) Y

* * *

Entries and their composite z-score
test: binders of probe aHhip on microarray, primary screen, stem cell growth factor project, biochemical, small-molecule microarray, fluorescence 635/667 (AID 1087); details: higher = more signal;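 note: score merges spot fluorescence at 667nm with spot signal to noise ratio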
No unit in the answer, please; the number alone is enough.

CC(C)NC(=O)[C@@]1(Cc2ccccc2I)c2ccccc2C(=O)N(Cc2ccccc2Cl)[C@H]1c1ccc(CO)cc1	-0.0994

Reported composite z-score for CN1C(=O)C2C=CC(C(O)c3c(F)cccc3Cl)N(NC(=O)OC(C)(C)C)C2C1=O (stereo unspecified) : what is it? 0.0623

I would be grateful if you could share the reported composite z-score for COC(=O)[C@@]1(Cc2ccc(F)cc2)[C@H]2c3cc(C(=O)N(C)C)n(Cc4cc(C)n(C)n4)c3C[C@H]2CN1C(=O)c1ccccc1 . 0.0139

Requested read-out: composite z-score. Entry: COc1cc2c(cc1O)C=[N+](Cc1cc3c(cc1Br)OCO3)CC2 -0.137

// returns reported composite z-score for input NC(=O)NCC#Cc1ccc2c(c1)[C@]1(C(=O)N2)[C@H](C(=O)O)[C@H]2C(=O)O[C@H](c3ccccc3)[C@H](c3ccccc3)N2[C@@H]1c1ccc(O)cc1 0.182

Entry under review: COC(=O)[C@]1(CCC(=O)OC(C)(C)C)N=C(c2ccc(OCCCO)cc2)O[C@@H]1c1ccccc1 . Reported composite z-score? -0.233

* * *

assay: JC-1 mitochondrial signal, unstimulated myeloma cells – cell-based, JC-1 fluorescence, RPMI8226, 24 h, 100 nL compound, profiling panel (AID 1169); conditions: JC-1 mitochondrial potential fluorescence, higher = more signal; note: test concentration not given here
Label T for high-side z-score (at or above -0.7) and F for low-side z-score (below it).

Please review the entries below; each comes with its answer.
Cc1ccc(S[C@]2(C(=O)O)CC(=O)N(Cc3ccccc3C(F)(F)F)[C@@H]2c2ccc(CO)cc2I)cc1	T
C=C(CCCC)/C(=C/C[C@@H](OC(C)=O)c1ccccc1OCCO)c1cc(C(=O)OC)ccc1OC	T
O=C1C2C=CC(C(O)c3ccc(F)cc3)N(Nc3ccc([N+](=O)[O-])cc3)C2C(=O)N1c1ccccc1 (stereo unspecified)	T
[N-]=[N+]=Nc1ccccc1C[C@@]1(C(=O)N2CCCCC2)N=C(c2ccc(OCCCO)cc2)O[C@@H]1c1ccccc1	F
O=C(CS)NCCCCCNC(=O)[C@@H]1C[C@@H]2C(=O)NCC(=O)N2[C@@H]1c1ccc(O)cc1	T

Assess whether reported z-score for Cc1c(NC(=O)/C(C#N)=C/c2cccc([N+](=O)[O-])c2)c(=O)n(-c2ccccc2)n1C sits at -0.7 or higher. T

Does the compound COC(=O)C(CC#Cc1ccc2c(c1)[C@]1(C(=O)N2)[C@H](c2ccccc2OCCO)N2[C@H](c3ccccc3)[C@H](c3ccccc3)OC(=O)[C@H]2[C@@H]1C(N)=O)C(=O)OC have recorded z-score that is -0.7 or more? F

# check: z-score of COC(=O)[C@@]1(Cc2ccc(F)cc2)[C@H]2c3cc(C(=O)N(C)C)n(Cc4cc(C)n(C)n4)c3C[C@H]2CN1C(=O)c1ccccc1 is greater than or equal to -0.7 T

Exam item: decide whether the reported z-score for O=C(NC1CC1)[C@@H]1c2ccccc2C(=O)N(Cc2cc(F)cc(C(F)(F)F)c2)[C@H]1c1ccc(CO)cc1 is at least -0.7. T

Does the reported z-score for CC(=CC1CCCCC1)[C@@H](NC(=O)c1cccnc1)c1ccc(-c2ccccc2)cc1 fall at or above the -0.7 mark? T

Entry COC(=O)[C@@]1(Cc2ccc(OC)cc2)[C@H]2c3cc(C(=O)N4CCCC4)n(CCCNc4ncc(C(F)(F)F)cc4Cl)c3C[C@H]2CN1C(=O)c1ccccc1 : is its z-score no less than -0.7? F

Answer whether z-score of COc1ccc(NN2C(C(O)c3ccc(N(C)C)cc3)C=CC3C(=O)N(C4CCCCC4)C(=O)C32)cc1 (stereo unspecified) is greater than or equal to -0.7. T

Say whether CCCNC(=O)[C@@H]1c2ccccc2C(=O)N(Cc2ccccc2OC)[C@H]1c1ccc(CO)cc1 shows z-score of -0.7 or more. T

Is reported z-score greater than or equal to -0.7 here: COCCOC(=O)N1C(=O)[C@@]2(c3ccccc31)[C@H](C(N)=O)[C@H]1C(=O)O[C@H](c3ccccc3)[C@H](c3ccccc3)N1[C@@H]2c1ccc(O)cc1 F

Does z-score meet or surpass -0.7 for CCCC=C(CCC)[C@@H](NC(=O)OCC(C)C)c1ccccc1 ? T

* * *

assay: probe aCHRDL2 binding to arrayed compounds – biochemical, biotinylated probe, 635/667 nm fluorescence, primary screen (AID 1100); settings: small-molecule microarray, higher = more signal
Cut-off 0.5 on composite z-score, inclusive. At or above means t; below means f.

COc1ccc(-c2cc3c(c(Cc4ccccc4)n2)[Si](C(C)C)(C(C)C)OC3)cn1	f
Cc1ccc(S(=O)(=O)N2C[C@@H](C(=O)O)[C@H](Sc3ccccc3)C[C@H]2c2ccccc2)cc1	t
OCCCC1=CC(C2CC2)N(Cc2cccc(OC(F)(F)F)c2)CC1 (configuration not stated)	f

Given Cc1ccc(S[C@]2(C(=O)O)CC(=O)N(C(C)C)[C@@H]2c2ccc(CO)cc2)cc1 , state whether its composite z-score is at least 0.5. f

Threshold query (composite z-score >= 0.5) on CC(=O)Nc1cc(Br)ccc1C(=O)NCc1ccccc1 f

* * *

target: Left-right determination factor 2 (Homo sapiens); test: small molecules binding LEFTY2 protein – biochemical, small-molecule microarray, 635 nm fluorescence scan, primary screen (AID 1110); settings: higher = more signal
observable: composite z-score
The reply should be a number, written without any unit.

Worked cases, composite z-score given:
O=c1cccc(-c2ccccc2Cl)o1	-0.12
CC(C)[Si](C#CCCCC#N)(Oc1ccccc1Br)C(C)C	0.0224

Next compound, composite z-score to be filled in.
Please report the recorded composite z-score for CS(=O)(=O)CCOC(=O)C1=CC(CCCO)=CC(c2ccc(CN3CCCC3)cc2)N(Cc2cccc(OC(F)(F)F)c2)C=C1C(=O)OCCS(C)(=O)=O (stereo not drawn) . 0.558
